Cited source: PubChem BioAssay (NCI)

- Tested on: MDA-N
- experiment: NCI tumour cell line growth inhibition, 48 h
recorded endpoint: TGI

{"molecule": "O=S1CCS(=O)CCS(=O)CC1 (centres undefined)", "result": "> 100 µM"}
{"molecule": "O=C1SS(=O)c2ccccc21 (centres undefined)", "result": "> 100 µM"}
{"molecule": "COc1cc(/C=C2\\C[C@H]3[C@@H]4CC=C5C=C(N6CCCC6)CC[C@]5(C)[C@H]4CC[C@]3(C)C2=O)cc(OC)c1OC", "result": "4.2 µM"}
{"molecule": "CCOC(=O)C(/C=N\\C(=S)Nc1ccc(Cl)c(Cl)c1)=C(/O)c1ccccc1", "result": "> 100 µM"}
{"molecule": "CC(C)(C)C(=O)C(C(=O)C(C)(C)C)C(=O)C(C)(C)C", "result": "> 100 µM"}
{"molecule": "COC1CC(OC2C(C)OC(OC3C(C)OC(OC4C(O)CC(O[C@H]5CC[C@@]6(C)C(=CC[C@]7(O)[C@@H]6C[C@@H](OC(=O)/C=C/c6ccccc6)[C@@]6(C)[C@]7(O)CC[C@@]6(O)C(C)=O)C5)OC4C)CC3OC)CC2OC)OC(C)C1O (some centres undefined)", "result": "> 6.25 µM"}
{"molecule": "Cc1c(C)c2c(c(N)c1C#N)C(=O)N(Nc1ccccc1)C2=O", "result": "> 100 µM"}
{"molecule": "CC(C)(C)c1cc(C2NCCO2)cc(C(C)(C)C)c1O (centres undefined)", "result": "> 100 µM"}
{"molecule": "c1ccc(N=C(Nc2ccccc2)N2CCCCC2)cc1", "result": "> 100 µM"}
